- ASSAY TEXT: Volume of distribution at steady state in Beagle dog at 1 mg/kg, iv or 3 mg/kg, po
- Assay type: ADME, organism-based, Canis lupus familiaris
- CONDITION PARAMETERS: in vivo, read-out: Vdss

SMILES NOTATION: CCNC1=N[C@@H]2[C@@H](O)[C@H](O)[C@@H](C(F)F)O[C@@H]2S1
Vd, L/kg: 2.4

---

- ASSAY TEXT: Fraction unbound in human plasma at 2.5 uM by equilibrium dialysis
- Assay type: ADME, cell-free

SMILES NOTATION: CNC1=N[C@@H]2[C@H](F)[C@H](O)[C@@H](CF)O[C@@H]2S1
fraction unbound at 2.5 µM: > 0.99

SMILES NOTATION: CNC1=N[C@@H]2C[C@H](O)[C@@H](C(F)F)O[C@@H]2S1
fraction unbound at 2.5 µM: > 0.99

SMILES NOTATION: CCNC1=N[C@@H]2[C@@H](O)[C@H](O)[C@@H](CF)O[C@@H]2S1
fraction unbound at 2.5 µM: 0.87

SMILES NOTATION: CCNC1=N[C@@H]2[C@@H](O)[C@H](O)[C@@H](CO)O[C@@H]2S1
fraction unbound at 2.5 µM: 0.76

SMILES NOTATION: CCNC1=N[C@@H]2[C@@H](O)[C@H](O)[C@@H](C(F)F)O[C@@H]2S1
fraction unbound at 2.5 µM: 0.99

SMILES NOTATION: CNC1=N[C@@H]2[C@@H](O)[C@H](O)[C@@H](C(F)F)O[C@@H]2S1
fraction unbound at 2.5 µM: 0.77

SMILES NOTATION: CN(C)C1=N[C@@H]2[C@@H](O)[C@H](O)[C@@H](CF)O[C@@H]2S1
fraction unbound at 2.5 µM: > 0.99

SMILES NOTATION: CNC1=N[C@@H]2[C@@H](O)[C@H](O)[C@@H](CF)O[C@@H]2S1
fraction unbound at 2.5 µM: 0.96

SMILES NOTATION: CNC1=N[C@@H]2[C@H](F)[C@H](O)[C@@H](CO)O[C@@H]2S1
fraction unbound at 2.5 µM: 0.84

SMILES NOTATION: CN(C)C1=N[C@@H]2[C@@H](O)[C@H](O)[C@@H](C(F)F)O[C@@H]2S1
fraction unbound at 2.5 µM: > 0.99

SMILES NOTATION: CNC1=N[C@@H]2[C@H](F)[C@H](O)[C@@H](C(F)F)O[C@@H]2S1
fraction unbound at 2.5 µM: 0.97
